System: MALME-3M melanoma
Assay: NCI-60 one-dose screen, 48 h
Settings: 10 µM
This is part of a sample that, as a whole, favours compounds with a hit. Of some 83,000 tested, about 20% had one in any assay. Calls of active or inactive are those of the source. How the source made its calls: active means growth percent below 10; inactive means the rest.
Possible outcomes: active, inactive

substanceSmiles	labelClass
COC(=O)[C@]12CC[C@@H](C)[C@H](C)[C@@H]1C1=CC[C@@H]3[C@@]4(C)CC(=O)[C@H](O)[C@@]5(C)COC(=C45)C[C@@]3(C)[C@]1(C)CC2	active
CCCCCCCCCCCCCCCC(=O)N1CCN(C)CC1	inactive
O=C(Nc1ccc(Oc2ccc(Nc3nc4ccccc4s3)cc2)cc1)Nc1ccc(Cl)c(Cl)c1	inactive
COc1ccc(-c2[nH]ncc2/C=C/c2cc(C(F)(F)F)[nH]c(=O)n2)cc1	inactive
